molecular target: Serine/threonine-protein kinase B-raf (Homo sapiens, UniProt P15056, V600E); test: Inhibition of BRAF V600E mutant (unknown origin)
Sequence (P15056 2-766 V600E limits assumed): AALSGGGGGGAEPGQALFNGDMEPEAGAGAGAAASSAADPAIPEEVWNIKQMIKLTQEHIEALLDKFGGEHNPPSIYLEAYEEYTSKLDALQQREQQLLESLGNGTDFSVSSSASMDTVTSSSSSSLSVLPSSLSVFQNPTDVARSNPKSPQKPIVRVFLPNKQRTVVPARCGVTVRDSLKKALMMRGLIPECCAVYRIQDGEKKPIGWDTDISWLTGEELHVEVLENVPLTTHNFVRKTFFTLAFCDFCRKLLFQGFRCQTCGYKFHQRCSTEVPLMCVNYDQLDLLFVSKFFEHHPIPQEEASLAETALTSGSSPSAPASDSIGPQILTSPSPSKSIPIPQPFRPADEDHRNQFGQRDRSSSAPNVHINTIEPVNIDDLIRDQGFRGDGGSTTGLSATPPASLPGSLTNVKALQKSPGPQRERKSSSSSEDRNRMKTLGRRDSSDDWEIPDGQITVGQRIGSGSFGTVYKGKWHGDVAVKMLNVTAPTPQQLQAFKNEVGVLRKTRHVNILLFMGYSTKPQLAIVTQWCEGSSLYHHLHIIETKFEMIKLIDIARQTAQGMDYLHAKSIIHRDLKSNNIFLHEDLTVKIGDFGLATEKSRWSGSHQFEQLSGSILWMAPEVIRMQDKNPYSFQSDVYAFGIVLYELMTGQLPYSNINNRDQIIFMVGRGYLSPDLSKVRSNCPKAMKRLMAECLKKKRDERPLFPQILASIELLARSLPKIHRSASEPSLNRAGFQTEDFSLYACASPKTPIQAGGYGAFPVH
pIC50: −log10 of the molar value.
measurement.name: pIC50

• COc1ccc(S(=O)(=O)NCCNc2nccc(-c3c(-c4cccc(N)c4)nc4sccn34)n2)cc1 = 7.63
• Nc1cccc(-c2nc3sccn3c2-c2ccnc(NCCCCNS(=O)(=O)c3ccc(Br)cc3)n2)c1 = 8.37
• Nc1cccc(-c2nc3sccn3c2-c2ccnc(NCCNS(=O)(=O)c3ccc(Br)cc3)n2)c1 = 7.13
• Nc1cccc(-c2nc3sccn3c2-c2ccnc(NCCNS(=O)(=O)c3ccc(F)cc3)n2)c1 = 7.90
• Nc1cccc(-c2nc3sccn3c2-c2ccnc(NCCNS(=O)(=O)c3ccc(C(F)(F)F)cc3)n2)c1 = 6.85
• Cc1ccc(S(=O)(=O)NCCNc2nccc(-c3c(-c4cccc(N)c4)nc4sccn34)n2)cc1 = 7.23
• Nc1cccc(-c2nc3sccn3c2-c2ccnc(NCCNS(=O)(=O)c3cccc4ccccc34)n2)c1 = 6.82
• Nc1cccc(-c2nc3sccn3c2-c2ccnc(NCCNS(=O)(=O)c3cccc(F)c3)n2)c1 = 7.55
• Nc1cccc(-c2nc3sccn3c2-c2ccnc(NCCNS(=O)(=O)c3ccc(Cl)cc3)n2)c1 = 7.78

The values you see were collected from ChEMBL document CHEMBL4725337.
